Attribute: apparent KD of MS2 coat protein
# Test system: MS2 coat protein
# Method description: apparent KD of MS2 coat protein; designed switch direction (-1 OFF switch, 1 ON switch): -1; higher = weaker reporter binding
# Measurement conditions: Eterna round: R95; input ligand: none
Experimental endpoint: apparent KD of MS2 coat protein (nM)

[[record]]
seq_string = "GAGAAGGUAGGAUAUACGAAUAAAUAGGGUAGUAAGAAGACACAUGAGGAUCACCCAUGUAGAAGGACCAAGAG [Mat - Exclusion 2 - Mod of my Tesla design - D37] (puzzle: Exclusion 2)"
experimental_endpoint = "apparent KD of MS2 coat protein"
output_unit = "nM"
observed_result = 21.8

[[record]]
seq_string = "AAGCGCGUAGGAUAUACAUGAGGAUCACCCAUGUGAGGAAGGAGUAGGAAGUGUGGAAGUAGAAGGACGGAGAG [JR_Exclu3_Sub077] (puzzle: Exclusion 3)"
experimental_endpoint = "apparent KD of MS2 coat protein"
output_unit = "nM"
observed_result = 37.4

[[record]]
seq_string = "UUUUAACAUGAGGAUCACCCAUGUGAGGAUAUCGUAUUUUUUUUUUUUUUUUUUUUUUCGAGAAGGCACAUUUU [My solution] (puzzle: Exclusion 1)"
experimental_endpoint = "apparent KD of MS2 coat protein"
output_unit = "nM"
observed_result = 16.5


###

# Tested on: MS2 coat protein
# Method description: apparent KD of MS2 coat protein, switch ON state; designed switch direction (-1 OFF switch, 1 ON switch): -1; higher = weaker reporter binding
# Measurement conditions: FMN input: 0 or 200 uM; Eterna round: R93 (includes R88 designs)
Experimental endpoint: apparent KD of MS2 coat protein

[[record]]
seq_string = "AAAAAACAUGAGGAUCACCCAUGUGAGGAUAUCCUGAAUGAAAUAAAAUAUCUCGAAAGGAGAAGGCGCAAAAA [Ex 1 May 33]"
assayed_system = "MS2 coat protein"
observed_result = "0.0677 µM"

[[record]]
seq_string = "AAAAAGGAAGGAUAUACGAACAUGUCAAAAGACGUGAAGGGACAUGAGGAUCACCCAUGUAGAAGGUCCAAAAA [JL Half Open 23]"
assayed_system = "MS2 coat protein"
observed_result = "0.0834 µM"

[[record]]
seq_string = "CUUAUGUGAGGAUAUGUACAGAAAAAAAAGGGUGUAACUGUACAGAAGGCACAUGAGGAUCACCCAUGUGAAUA [EX4 380: S S Pseudoknot 5]"
assayed_system = "MS2 coat protein"
observed_result = "0.0619 µM"


###

Attribute: apparent KD of MS2 coat protein
# Test system: MS2 coat protein
# Method description: apparent KD of MS2 coat protein; designed switch direction (-1 OFF switch, 1 ON switch): -1; higher = weaker reporter binding
# Measurement conditions: Eterna round: R95; input ligand: none
Experimental endpoint: apparent KD of MS2 coat protein (nM)

[[record]]
seq_string = "CUGAGGUAGCGGUCCUAUGACAUGAGGAUCACCCAUGUACCUUGCUUCGAGCUUAUUGCUCGUCUUAUGAUUCUCGG [Mat - Sensor v3 - turn-off var 1 - JL Mod - D33] (puzzle: Sensor v3, turn-off variant 1)"
output_unit = "nM"
observed_result = 613

[[record]]
seq_string = "GUUAAACAUGAGGAUCACCCAUGUAAGGAUAUGCUGCGGUCGCGAUGAAGUGACUGCAGCAGAAGGUACAAAUG [Mat - Mod of JL D59] (puzzle: Exclusion 1)"
output_unit = "nM"
observed_result = 102

[[record]]
seq_string = "ACAAGCUUUUUGCUCGUCGAGUAGAAACGUGAGAGCGAGACAUGAGGAUCACCCAUGUAAAGGCAGUAGGUGGAGAU [JR_SV3TOV2_Sub025] (puzzle: Sensor v3, turn-off variant 2)"
output_unit = "nM"
observed_result = 33.9

[[record]]
seq_string = "AGUACUAACACGCGUGUGUUAGUACAAUAAGCUUGUGAAACAUGAGGAUCACCCAUGUCCUCAUAAGCUCGUCUUAU [salish99_TOv2_r3_076] (puzzle: Sensor v3, turn-off variant 2)"
output_unit = "nM"
observed_result = 13.7

[[record]]
seq_string = "GCCUGAGCAGGAUAUUCAAUAAUUCACAUGAGGAUCACCCAUGUCCAGCGAAAGCUAGGAGGAGAAGGGCUCAGGC [Mat - Exclusion 5 - Eli mod - D86] (puzzle: Exclusion 5)"
output_unit = "nM"
observed_result = 17.8

[[record]]
seq_string = "AUUGUAGAUGUGAGGAUAUCGUAGAUUUUUUGAAACGAGAAGGCACAUGAGGAUCACCCAUGUAAGAUGUAGGU [JR_BMOE4_Sub053] (puzzle: Brourd's mod of Exclusion 4)"
output_unit = "nM"
observed_result = 298

[[record]]
seq_string = "UAUUAACAAGCAAGAUCCUACAUGAGGAUCACCCAUGUGCUCGUCUUGUAAGGUACUGUGACGAAAGUCACGGUACC [Sensor 3, v1 - 71] (puzzle: Sensor v3, turn-off variant 1)"
output_unit = "nM"
observed_result = 18.9

[[record]]
seq_string = "AGUACUAACACGAAAGUGUUAGUACAAUAAGCUUGUGUUACAUGAGGAUCACCCAUGUCCUCAUAAGCUCGUCUUAA [Mat - Sensor v3 - Turn-off var 2 - D49] (puzzle: Sensor v3, turn-off variant 2)"
output_unit = "nM"
observed_result = 47.4

[[record]]
seq_string = "ACUCGAGAAGGAUAUACAUGAGGAUCACCCAUGUUAACUCCCAAGGGCAUCUUAAAAGGUAGAAGGUCUUGAAA [Laonbeus] (puzzle: Exclusion 3)"
output_unit = "nM"
observed_result = 14.1

[[record]]
seq_string = "CUCUUGUCAGGAUAUCUAAGCUGCCUCCCGGUAGCCGAAUUAGAGAAGGGACAUGAGGAUCACCCAUGUAAAAG [Qubile] (puzzle: Exclusion 4)"
output_unit = "nM"
observed_result = 280

